Taken from ChEMBL document CHEMBL1133967.

Test system: Caldicellulosiruptor saccharolyticus
assayMethodText: Inhibitory activity against Beta-glucosidase of Caldocellum saccharolyticum at 1 mM; No inhibition
measurementLabel: inhibition

Cc1oc(C2NCC(O)C2O)cc1CO (centres undefined)	No inhibition
Cc1oc(C2NCC(O)C2O)cc1C(=O)Nc1ccccc1 (centres undefined)	No inhibition
COC(=O)c1cc(C2NCC(O)C2O)oc1C (centres undefined)	No inhibition
Cc1oc(C2NCC(O)C2O)cc1C(=O)O (centres undefined)	No inhibition

---

Tested on: Canavalia ensiformis
assayMethodText: Inhibitory activity against Beta-D-galactosidase of Jack bean at 1 mM; No inhibition
Active and inactive are the calls of the source. The rule behind the calls is not given here.
measurementLabel: inhibition

Cc1oc(C2NCC(O)C2O)cc1C(=O)Nc1ccccc1 (centres undefined)	inactive
Cc1oc(C2NCC(O)C2O)cc1C(=O)O (centres undefined)	inactive
Cc1oc(C2NCC(O)C2O)cc1CO (centres undefined)	inactive

---

Target sequence: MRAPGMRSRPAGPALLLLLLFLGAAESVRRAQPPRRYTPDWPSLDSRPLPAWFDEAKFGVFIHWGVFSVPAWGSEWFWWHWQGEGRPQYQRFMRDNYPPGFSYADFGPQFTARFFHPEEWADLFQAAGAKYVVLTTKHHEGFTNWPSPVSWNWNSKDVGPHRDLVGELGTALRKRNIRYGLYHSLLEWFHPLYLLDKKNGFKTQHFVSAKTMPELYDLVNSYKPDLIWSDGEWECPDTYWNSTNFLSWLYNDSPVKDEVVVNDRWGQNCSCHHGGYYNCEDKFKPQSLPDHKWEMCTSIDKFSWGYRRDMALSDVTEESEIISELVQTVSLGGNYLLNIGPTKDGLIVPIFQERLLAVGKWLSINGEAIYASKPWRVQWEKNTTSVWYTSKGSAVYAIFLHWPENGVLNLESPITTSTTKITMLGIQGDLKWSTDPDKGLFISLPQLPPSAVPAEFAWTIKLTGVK
measurementLabel: Ki (µM)
The reply should contain only the number, in µM.

Task: Param item = COC(=O)c1cc(C2NCC(O)C2O)oc1C (stereo unspecified) ; retrieve measured Ki.
Result: 13.8

---

System: maltase (Saccharomyces cerevisiae)
assayMethodText: Inhibitory activity against maltase of yeast at 1 mM; No inhibition
The source made the active and inactive calls. No cut-off for these calls is given here.
measurementLabel: inhibition

Cc1oc(C2NCC(O)C2O)cc1CO (centres undefined)	inactive
Cc1oc(C2NCC(O)C2O)cc1C(=O)Nc1ccccc1 (centres undefined)	inactive
Cc1oc(C2NCC(O)C2O)cc1C(=O)O (centres undefined)	inactive

---

System: Aspergillus niger
assayMethodText: Inhibitory activity against Alpha-galactosidase of Aspergillus niger at 1 mM; No inhibition
Calls of active or inactive are those of the source. No cut-off for these calls is given here.
measurementLabel: inhibition

Cc1oc(C2NCC(O)C2O)cc1C(=O)Nc1ccccc1 (centres undefined)	inactive
Cc1oc(C2NCC(O)C2O)cc1CO (centres undefined)	inactive
Cc1oc(C2NCC(O)C2O)cc1C(=O)O (centres undefined)	inactive

---

experimentalTarget: Beta-galactosidase (Bos taurus) (UniProt Q58D55)
Sequence (Q58D55 whole entry): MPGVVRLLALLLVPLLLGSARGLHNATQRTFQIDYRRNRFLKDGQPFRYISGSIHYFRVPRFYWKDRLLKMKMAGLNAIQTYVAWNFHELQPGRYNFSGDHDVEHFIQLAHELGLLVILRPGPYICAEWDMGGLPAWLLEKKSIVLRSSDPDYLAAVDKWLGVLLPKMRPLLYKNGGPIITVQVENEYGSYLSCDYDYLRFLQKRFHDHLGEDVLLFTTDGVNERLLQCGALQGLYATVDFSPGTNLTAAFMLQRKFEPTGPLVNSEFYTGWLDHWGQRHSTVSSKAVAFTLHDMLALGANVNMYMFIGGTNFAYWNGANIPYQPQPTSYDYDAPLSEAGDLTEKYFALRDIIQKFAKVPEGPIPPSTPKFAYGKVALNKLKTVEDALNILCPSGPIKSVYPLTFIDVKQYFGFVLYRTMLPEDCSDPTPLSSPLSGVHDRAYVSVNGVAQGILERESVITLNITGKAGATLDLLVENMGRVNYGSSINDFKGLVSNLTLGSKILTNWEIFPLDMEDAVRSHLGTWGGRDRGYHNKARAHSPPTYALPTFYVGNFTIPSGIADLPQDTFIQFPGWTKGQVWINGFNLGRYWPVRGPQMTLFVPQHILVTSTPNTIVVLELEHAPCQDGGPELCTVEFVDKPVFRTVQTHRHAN
assayMethodText: Percent inhibition against Beta-D-galactosidase of bovine liver at 1 mM
Is inhibition at least 50%? Then label 1. If not, label 0.

Some solved cases for reference:
Cc1oc(C2NCC(O)C2O)cc1C(=O)O (centres undefined)	label 0
COC(=O)c1cc(C2NCC(O)C2O)oc1C (centres undefined)	label 1
Cc1oc(C2NCC(O)C2O)cc1C(=O)NC(C)C (centres undefined)	label 0
Cc1oc(C2NCC(O)C2O)cc1C(=O)Nc1ccccc1 (centres undefined)	label 0

Task: Does inhibition meet or surpass 50% for CCNC(=O)c1cc(C2NCC(O)C2O)oc1C (centres undefined) ?
Result: label 1

Task: Does inhibition meet or surpass 50% for CCOC(=O)c1cc(C2NCC(O)C2O)oc1C (centres undefined) ?
Result: label 1

Task: Does inhibition meet or surpass 50% for Cc1oc(C2NCC(O)C2O)cc1C(=O)OC(C)C (centres undefined) ?
Result: label 1

Task: Does inhibition meet or surpass 50% for CCN(CC)C(=O)c1cc(C2NCC(O)C2O)oc1C (centres undefined) ?
Result: label 1
